Answer each item with its documented inhibition in vivo at 0.5 mg/kg.
Test system: Rattus norvegicus
Experiment: Percent inhibition of rat passive cutaneous anaphylaxis model after intravenous administration of the 0.5 mg/kg
Format: functional
Remember to follow the number with its unit.

Data request: Specify inhibition in vivo at 0.5 mg/kg for `COc1cc2nc3ccc(-c4nn[nH]n4)cn3c(=O)c2cc1OC` and stop.
Data returned: 100%

Data request: Specify inhibition in vivo at 0.5 mg/kg for `O=c1c2ccccc2nc2ccc(-c3nn[nH]n3)cn12` and stop.
Data returned: 68%

Data request: Specify inhibition in vivo at 0.5 mg/kg for `O=C(O)c1ccn2c(=O)c3ccccc3nc2c1` and stop.
Data returned: 26%

Data request: Specify inhibition in vivo at 0.5 mg/kg for `O=c1c2cc3ccccc3cc2nc2ccc(-c3nn[nH]n3)cn12` and stop.
Data returned: 100%

Data request: Specify inhibition in vivo at 0.5 mg/kg for `Cc1ccc2nc3ccc(-c4nn[nH]n4)cn3c(=O)c2c1` and stop.
Data returned: 100%

Attribution: ChEMBL document CHEMBL1122082
